- assayed_system: D(2) dopamine receptor (Rattus norvegicus, UniProt P61169)
- Sequence (P61169 whole entry): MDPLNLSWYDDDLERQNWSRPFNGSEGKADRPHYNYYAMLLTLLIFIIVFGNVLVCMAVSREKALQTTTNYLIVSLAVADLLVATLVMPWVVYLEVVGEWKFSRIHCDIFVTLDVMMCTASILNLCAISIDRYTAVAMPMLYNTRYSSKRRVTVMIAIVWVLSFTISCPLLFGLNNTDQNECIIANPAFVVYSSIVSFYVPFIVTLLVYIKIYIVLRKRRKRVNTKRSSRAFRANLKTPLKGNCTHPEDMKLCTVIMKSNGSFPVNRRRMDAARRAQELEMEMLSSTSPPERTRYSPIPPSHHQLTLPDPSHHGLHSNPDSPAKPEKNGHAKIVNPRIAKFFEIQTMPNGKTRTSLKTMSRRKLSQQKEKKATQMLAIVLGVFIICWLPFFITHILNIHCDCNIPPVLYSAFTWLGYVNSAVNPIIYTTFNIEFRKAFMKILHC
pKi: −log10 of the molar value.
endpoint_name: pKi

stdin: Entry `Nc1ncnc2nc(-c3ccc(N4CCOCC4)nc3)cc(-c3cccc(Br)c3)c12` has what pKi?
stdout: < 5.00

###

- assayed_system: Bombesin receptor subtype-3 (Rattus norvegicus, UniProt Q8K418)
- Sequence (Q8K418 whole entry): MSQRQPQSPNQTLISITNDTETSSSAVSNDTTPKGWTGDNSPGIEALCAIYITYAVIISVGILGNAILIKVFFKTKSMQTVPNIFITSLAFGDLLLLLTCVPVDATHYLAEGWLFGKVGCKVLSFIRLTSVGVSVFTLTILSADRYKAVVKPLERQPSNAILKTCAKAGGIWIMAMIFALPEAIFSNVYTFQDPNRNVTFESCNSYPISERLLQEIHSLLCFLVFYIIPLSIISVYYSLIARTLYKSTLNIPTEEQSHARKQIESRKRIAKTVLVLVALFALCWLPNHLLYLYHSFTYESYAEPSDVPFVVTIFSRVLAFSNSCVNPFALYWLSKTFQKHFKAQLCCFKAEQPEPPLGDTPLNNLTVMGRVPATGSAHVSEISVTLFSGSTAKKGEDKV
endpoint_name: Ki

stdin: Entry `Nc1ncnc2nc(-c3ccc(N4CCOCC4)nc3)cc(-c3cccc(Br)c3)c12` has what Ki?
stdout: > 10 µM

###

- assayed_system: 5-hydroxytryptamine receptor 7 (Rattus norvegicus)
- Sequence (P32305 whole entry): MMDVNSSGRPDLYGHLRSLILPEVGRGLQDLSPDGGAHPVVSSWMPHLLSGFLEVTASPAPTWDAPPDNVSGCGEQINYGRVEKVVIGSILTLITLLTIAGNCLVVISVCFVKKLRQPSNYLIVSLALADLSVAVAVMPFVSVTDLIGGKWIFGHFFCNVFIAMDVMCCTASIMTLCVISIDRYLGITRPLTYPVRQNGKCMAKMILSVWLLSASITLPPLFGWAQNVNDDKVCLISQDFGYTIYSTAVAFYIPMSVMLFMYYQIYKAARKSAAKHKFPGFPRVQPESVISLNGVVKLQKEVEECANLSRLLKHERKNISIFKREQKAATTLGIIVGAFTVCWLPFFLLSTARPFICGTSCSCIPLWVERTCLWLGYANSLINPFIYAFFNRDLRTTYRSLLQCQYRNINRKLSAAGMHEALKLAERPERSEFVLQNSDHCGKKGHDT
endpoint_name: Ki

stdin: Entry `Nc1ncnc2nc(-c3ccc(N4CCOCC4)nc3)cc(-c3cccc(Br)c3)c12` has what Ki?
stdout: > 10 µM

###

- assayed_system: Alpha-2C adrenergic receptor (Rattus norvegicus)
- Sequence (P22086 whole entry): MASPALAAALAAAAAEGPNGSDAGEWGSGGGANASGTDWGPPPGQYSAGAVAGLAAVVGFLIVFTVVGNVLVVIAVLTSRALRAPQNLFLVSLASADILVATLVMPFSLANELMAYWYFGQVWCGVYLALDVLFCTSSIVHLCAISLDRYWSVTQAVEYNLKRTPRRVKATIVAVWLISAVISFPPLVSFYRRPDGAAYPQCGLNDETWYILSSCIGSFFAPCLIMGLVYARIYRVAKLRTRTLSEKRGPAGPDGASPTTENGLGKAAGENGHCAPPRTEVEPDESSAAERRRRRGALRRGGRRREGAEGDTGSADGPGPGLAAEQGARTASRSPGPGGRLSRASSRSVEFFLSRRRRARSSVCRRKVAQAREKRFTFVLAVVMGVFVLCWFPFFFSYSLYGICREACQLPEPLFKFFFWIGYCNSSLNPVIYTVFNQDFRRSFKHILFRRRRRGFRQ
endpoint_name: Ki

stdin: Entry `Nc1ncnc2nc(-c3ccc(N4CCOCC4)nc3)cc(-c3cccc(Br)c3)c12` has what Ki?
stdout: > 10 µM

###

- assayed_system: Beta-1 adrenergic receptor (Rattus norvegicus, UniProt P18090)
- Sequence (P18090 whole entry): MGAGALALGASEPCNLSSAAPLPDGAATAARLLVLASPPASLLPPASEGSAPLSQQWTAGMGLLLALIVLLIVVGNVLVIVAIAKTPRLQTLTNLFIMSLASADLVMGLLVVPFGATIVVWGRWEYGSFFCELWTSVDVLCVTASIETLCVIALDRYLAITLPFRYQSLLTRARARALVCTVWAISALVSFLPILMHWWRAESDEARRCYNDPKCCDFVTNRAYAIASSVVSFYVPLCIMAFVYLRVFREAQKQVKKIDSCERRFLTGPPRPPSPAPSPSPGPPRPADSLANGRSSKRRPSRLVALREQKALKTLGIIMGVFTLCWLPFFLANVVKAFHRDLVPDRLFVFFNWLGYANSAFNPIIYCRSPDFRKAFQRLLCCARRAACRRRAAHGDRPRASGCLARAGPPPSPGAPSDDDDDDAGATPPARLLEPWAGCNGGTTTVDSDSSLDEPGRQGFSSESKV
pKi: −log10 of the molar value.
endpoint_name: pKi

stdin: Lab note: need pKi with Beta-1 adrenergic receptor (Rattus norvegicus, UniProt P18090) for entry `Nc1ncnc2nc(-c3ccc(N4CCOCC4)nc3)cc(-c3cccc(Br)c3)c12` , please look it up.
stdout: < 5.00

###

- assayed_system: Cannabinoid receptor 2 (Rattus norvegicus, UniProt Q9QZN9)
- Sequence (Q9QZN9 whole entry): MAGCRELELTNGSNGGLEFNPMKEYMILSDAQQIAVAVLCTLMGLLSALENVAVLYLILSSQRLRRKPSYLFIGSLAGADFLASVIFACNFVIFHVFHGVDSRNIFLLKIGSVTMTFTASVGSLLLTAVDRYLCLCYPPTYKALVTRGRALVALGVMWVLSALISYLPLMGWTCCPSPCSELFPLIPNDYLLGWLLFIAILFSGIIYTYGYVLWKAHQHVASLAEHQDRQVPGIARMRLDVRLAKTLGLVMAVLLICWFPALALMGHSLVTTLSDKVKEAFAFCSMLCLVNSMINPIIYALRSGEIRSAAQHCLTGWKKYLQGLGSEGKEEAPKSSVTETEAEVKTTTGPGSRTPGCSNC
pKi: −log10 of the molar value.
endpoint_name: pKi

stdin: Entry `Nc1ncnc2nc(-c3ccc(N4CCOCC4)nc3)cc(-c3cccc(Br)c3)c12` has what pKi?
stdout: < 5.00

###

- assayed_system: D(4) dopamine receptor (Rattus norvegicus, UniProt P30729)
- Sequence (P30729 whole entry): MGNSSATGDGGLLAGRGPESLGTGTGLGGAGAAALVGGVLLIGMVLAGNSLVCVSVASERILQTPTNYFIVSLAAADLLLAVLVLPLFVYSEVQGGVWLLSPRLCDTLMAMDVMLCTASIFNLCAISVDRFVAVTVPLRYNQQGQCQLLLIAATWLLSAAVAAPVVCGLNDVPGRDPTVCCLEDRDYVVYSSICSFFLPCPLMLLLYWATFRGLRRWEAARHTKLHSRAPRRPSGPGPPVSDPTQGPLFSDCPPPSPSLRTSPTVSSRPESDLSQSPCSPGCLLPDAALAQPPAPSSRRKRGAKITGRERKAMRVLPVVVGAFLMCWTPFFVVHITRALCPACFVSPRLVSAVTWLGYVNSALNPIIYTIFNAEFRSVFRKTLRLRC
endpoint_name: Ki

stdin: Lab note: need Ki with D(4) dopamine receptor (Rattus norvegicus, UniProt P30729) for entry `Nc1ncnc2nc(-c3ccc(N4CCOCC4)nc3)cc(-c3cccc(Br)c3)c12` , please look it up.
stdout: > 10 µM

###

- assayed_system: Muscarinic acetylcholine receptor M4 (Rattus norvegicus, UniProt P08485)
- Sequence (P08485 as listed by the source): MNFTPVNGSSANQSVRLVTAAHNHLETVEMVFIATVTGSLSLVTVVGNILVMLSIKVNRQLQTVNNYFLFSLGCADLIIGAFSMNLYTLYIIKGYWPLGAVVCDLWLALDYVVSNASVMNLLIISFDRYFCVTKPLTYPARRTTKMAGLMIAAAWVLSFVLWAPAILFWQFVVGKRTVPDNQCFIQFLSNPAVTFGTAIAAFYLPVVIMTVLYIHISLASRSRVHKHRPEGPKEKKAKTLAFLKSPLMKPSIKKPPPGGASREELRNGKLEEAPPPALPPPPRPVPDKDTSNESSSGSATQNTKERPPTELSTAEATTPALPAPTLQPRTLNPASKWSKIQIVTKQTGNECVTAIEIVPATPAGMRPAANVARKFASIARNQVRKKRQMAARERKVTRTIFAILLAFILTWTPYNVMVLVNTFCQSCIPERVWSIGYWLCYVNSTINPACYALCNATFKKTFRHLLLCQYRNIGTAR
pKi: −log10 of the molar value.
endpoint_name: pKi

stdin: Entry `Nc1ncnc2nc(-c3ccc(N4CCOCC4)nc3)cc(-c3cccc(Br)c3)c12` has what pKi?
stdout: < 5.00

###

- assayed_system: Norepinephrine transporter (Rattus norvegicus, UniProt Q9JIA2)
endpoint_name: Ki

stdin: Entry `Nc1ncnc2nc(-c3ccc(N4CCOCC4)nc3)cc(-c3cccc(Br)c3)c12` has what Ki?
stdout: > 10 µM

Ref: BindingDB's records for PubMed 11082453
